Data origin, for the record: the DeepSol protein solubility set

# Experiment summary: soluble on expression in E. coli; label from the status in PepcDB or PDB records
Property name: soluble on expression in E. coli

Seq text	Result
MSEEKQTVEQNETEEQEIIEEQAAADEQQEETNESELLQNQINELQGLLEEKENKLLRVQADFENYKRRSRLEMEASQKYRSQNIVTDLLPALDSFERALQVEADNEQTKSLLQGMEMVHRQLVEALKKEGVEAIEAVGQEFDPNLHQAVMQAEDENYGSNIVVEEMQKGYKLKDRVIRPSMVKVNQ	not soluble
GPGSMFGRSALCLAKRFRYNTKYPSLVSYNKLPWEILNHETPEFHMHVAPHYEQIMTLAASTHVPHIVGKKHLEMPPEHRLRLLPGMFYMLDGDSIPEGFTANRVLDPTALQYYGRLESLVAPVQAVRMLISDDLRIVCNSVTLQGPLQLPVASYASLASLEVVTNKASASFTLFHFVRPNRPPSELQLEKYYIHAPRAMALAEFNSTSNTSWEPKLQAPKRSKRVTPLPAYRPPQSYLMGLAERLAVVPGSSFGRRSLMWGHWF	not soluble
MGHHHHHHSHMRKNESYLNQPAPPIPIPTLSLMGGCREHFENHWKGRARWLMPVIPALWEAKAGRSPEVRSSKPAWPTWRNPIFTKNTKISQVLELFLNYQSLICALEKQKRQKGSLAIFCWSFQGGCVSKRPDVPSLKSQKPKRKRITGRKRLSKGFWSLLFSNLGRF	not soluble
MRGSHHHHHHGMTIFEKKPDFTLFLQTLSWEIDDQVGIEVRNELLREVGRGMGTRIMPPPCQTVDKLQIELNALLALIGWGTVTLELLSEDQSLRIVHENLPQVGSAGEPSGTWLAPVLEGLYGRWVTSQAGAFGDYVVTRDVDAEDLNAVPRQTIIMYMRVRSSAT	soluble
MSSGDQNRGGVADKALQLVLEMKRNPDVLPPYNTELVRQCYQKIDELFQKNAAVVEKIRAGLPHDSTLLQPRLAAMCHIRRCMMAYVNERKNRIRSFRWKYGGALPASVRNALCDAEIQFFNEYSSTLARFQSNLGEGGVNLLLHSAPPKSLFVQVRALEDYGEFETSDGTQVQLSKDSLHSLPRQDCEMLIRQGVLELVH	not soluble
MGSDKIHHHHHHAALSTNTVAVEKAPDMVAVMGGEPEVMLDKALEALGGIGNFVKKGQKIVIKPNIGWDRSPELAGNTNPKLVKALVKKCLEAGASKVTVFDHTCDNWQKCYETSGIAEAVKEAGGIIMPANDEKYFKEVSIPGGVNLKSAKIHEALIEADAWINVPVLKNHGGAKMTCAMKNYMGIVWDRRFFHQNDLQQCIADICTWQKKPVLNIVDAYRIMHQNGPQGKSAADVATLKSLIASPNIVAIDTAALRLFNQVKKLDMAAVGHIGKGEALKLGTTNLDNVTIKRIKI	not soluble
MGSDKIHHHHHHGMDKLSTKNYHTLLEVINDQEMIASPNTQLDSQVIANSSPFGGEVVTNRSKNIDGYTVEWSNLRSRYSFFRNSIDWNEVYPGSYYSSKNFYEYNRQTKQKVASFYNPAITNYYGGIKNELSELDKMENQVAEVAISFDKPYPYEEVRKMLPSNVNLVWLYVYSETVNEAEGPSGTLPYGFQLSMDDQNEIFDPENDKQHFFETLEKSPLFADNQEGQKFIQQNKNKKVEKLPIWGVMLTGQTKNFKALQNEPFVRGASIGVTAPIVPYIQPEK	not soluble
MSLTQAATRPTNDAGQDGGNNSDILVVARQQVLQRGEGLNQDQVLAVLQLPDDRLEELLALAHEVRMRWCGPEVEVEGIISLKTGGCPEDCHFCSQSGLFASPVRSAWLDIPSLVEAAKQTAKSGATEFCIVAAVRGPDERLMAQVAAGIEAIRNEVEINIACSLGMLTAEQVDQLAARGVHRYNHNLETARSFFANVVTTHTWEERWQTLSMVRDAGMEVCCGGILGMGETLQQRAEFAAELAELGPDEVPLNFLNPRPGTPFADLEVMPVGDALKAVAAFRLALPRTMLRFAGGREITLGDLGAKRGILGGINAVIVGNYLTTLGRPAEADLELLDELQMPLKALNASLEGHHHHHH	soluble
MSSFSESALEKKLSELSNSQHSVQTLSLWLIHHRKHAGPIVSVWHRELRKAKSNRKLTFLYLANDVIQNSKRKGPEFTREFESVLVDAFSHVAREADEGCKKPLERLLNIWQERSVYGGEFIQQLKLSMEDSKSPPPKATEEKKSLKRTFQQIQEEEDDDYPGSYSPQDPSAGPLLTEELIKALQDLENAASGDATVRQKIASLPQEVQDVSLLEKITDKEAAERLSKTVDEACLLLAEYNGRLAAELEDRRQLARMLVEYTQNQKDVLSEKEKKLEEYKQKLARVTQVRKELKSHIQSLPDLSLLPNVTGGLAPLPSAGDLFSTD	soluble
MGENSLWNVYKTVSFWKVMKNFIIIQIARYTPCLSVKNWLYRTFLRMKVGKKTSFALMVMPDIMFPEKITVGENSIIGYNTTLLAHEYLIREYRLGEIVIGNEVMIGANVTILPGVKIGDGATVSAGTLVHRDVPSGAFVGGNPMRIIYTKEQMTAREGLEHHHHHH	not soluble
DGTLVVDIDGCISHANPAAETLLAGPEESLVGQQVEAVIPTWDSLTVDDEQADWSELALSVDGQQRFVELEVTPFADRF	not soluble
MPENSQPTTTEKGSEYLEQLANEAEELRKKLDQERHKLNDIPIQQAAERLDVMGALGVKQRRILKGHVGKVLCMDWSLDKRHIVSSSQDGKVIVWDGFTTNKEHALTMPTTWVMACAFSPSSQMIACGGLDNKCSVVPLSFEDDIIQKKRQVATHTSYMSCCTFLRSDNLILTGSGDSTCAIWDVESGQLIQNFHGHTGDVFAIDVPKCDTGNTFISAGADKHSLVWDIRSGQCVQSFEGHEADINTVRFHPNGDAFATGSDDATCRLFDLRADRQVCVYEKESILFPVNGVDFSLSGRILFAGYGDYRVGVWDSLKCARHSVLYGHENRISCLRTSPDGTAVCSASWDCTIRIWA	not soluble
